From: paper PMC10099454

Molecular target: Topoisomerase II (Homo sapiens, UniProt P11388)
Sequence (P11388 whole entry): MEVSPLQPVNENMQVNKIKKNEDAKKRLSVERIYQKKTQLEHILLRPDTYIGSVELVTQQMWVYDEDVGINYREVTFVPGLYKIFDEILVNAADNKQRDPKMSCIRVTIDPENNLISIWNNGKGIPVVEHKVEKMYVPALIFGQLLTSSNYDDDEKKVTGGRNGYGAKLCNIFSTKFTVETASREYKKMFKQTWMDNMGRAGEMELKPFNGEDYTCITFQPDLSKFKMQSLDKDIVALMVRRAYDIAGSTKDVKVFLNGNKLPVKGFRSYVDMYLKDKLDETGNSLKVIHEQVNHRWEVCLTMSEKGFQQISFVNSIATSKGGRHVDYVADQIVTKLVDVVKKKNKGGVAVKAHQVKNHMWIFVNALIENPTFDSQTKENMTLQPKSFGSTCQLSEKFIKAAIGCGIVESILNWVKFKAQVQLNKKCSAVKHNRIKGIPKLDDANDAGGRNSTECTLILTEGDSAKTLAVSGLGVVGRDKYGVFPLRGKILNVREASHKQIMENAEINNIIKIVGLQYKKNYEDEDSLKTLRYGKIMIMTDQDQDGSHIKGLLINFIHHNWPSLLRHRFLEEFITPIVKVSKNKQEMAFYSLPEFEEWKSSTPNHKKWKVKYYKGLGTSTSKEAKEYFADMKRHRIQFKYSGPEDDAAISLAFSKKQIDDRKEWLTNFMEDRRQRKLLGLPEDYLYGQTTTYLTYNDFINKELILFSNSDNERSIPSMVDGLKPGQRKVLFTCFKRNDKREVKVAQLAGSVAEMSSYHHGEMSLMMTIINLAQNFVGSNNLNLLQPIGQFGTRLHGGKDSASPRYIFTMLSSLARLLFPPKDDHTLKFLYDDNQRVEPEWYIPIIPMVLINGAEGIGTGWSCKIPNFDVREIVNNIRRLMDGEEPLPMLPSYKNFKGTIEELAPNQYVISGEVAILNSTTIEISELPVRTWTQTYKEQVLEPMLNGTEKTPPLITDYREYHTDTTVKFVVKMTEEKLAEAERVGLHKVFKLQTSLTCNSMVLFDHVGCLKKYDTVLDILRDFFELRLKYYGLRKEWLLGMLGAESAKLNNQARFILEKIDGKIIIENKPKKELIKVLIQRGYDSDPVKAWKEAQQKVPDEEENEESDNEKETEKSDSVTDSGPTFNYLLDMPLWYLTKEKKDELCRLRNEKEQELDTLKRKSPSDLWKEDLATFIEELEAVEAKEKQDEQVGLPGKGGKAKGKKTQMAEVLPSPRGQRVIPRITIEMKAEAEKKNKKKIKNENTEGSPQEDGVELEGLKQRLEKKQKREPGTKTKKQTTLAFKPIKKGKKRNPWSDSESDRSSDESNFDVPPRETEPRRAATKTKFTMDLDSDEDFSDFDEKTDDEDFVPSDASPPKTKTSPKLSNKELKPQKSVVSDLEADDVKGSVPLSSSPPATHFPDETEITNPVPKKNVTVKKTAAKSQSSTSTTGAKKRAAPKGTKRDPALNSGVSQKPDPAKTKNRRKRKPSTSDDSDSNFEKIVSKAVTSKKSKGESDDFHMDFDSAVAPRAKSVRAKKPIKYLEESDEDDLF
pIC50: −log10 of the molar value.
parameter: pIC50

> print(dat)
                                   molecule  parameter  observedresult
1  CC(=O)OC[C@H]1O[C@@H](N2C(=O)/C(=C/c3ccccc3)SC2=S)[C@H](OC(C)=O)[C@@H](OC(C)=O)[C@@H]1OC(C)=O [Compound 11a]      pIC50            5.12
